Hey, just so you know, these numbers are from ChEMBL document CHEMBL4390686.

Experiment: physchem
Details: 30% CH3CN/acetate buffer, pH 4
Description: Half life in pH 4 30%CH3CN/acetate buffer at 50 mM by RP-UPLC analysis
attribute-measured: half-life at 50000 µM (days)

INSERT INTO measurements (smiles_data, reported_measurement) VALUES
  ('COC(=O)N[C@H](C(=O)N[C@@H](Cc1ccccc1)[C@H](CN(Cc1ccc(-c2ccccn2)cc1)NC(=O)[C@@H](NC(=O)OC)C(C)(C)C)OC(=O)[C@@H](N)Cc1ccc(O)cc1)C(C)(C)C', 15.7),
  ('COC(=O)N[C@H](C(=O)N[C@@H](Cc1ccccc1)[C@H](CN(Cc1ccc(-c2ccccn2)cc1)NC(=O)[C@@H](NC(=O)OC)C(C)(C)C)OC(=O)[C@@H](N)Cc1c[nH]c2ccccc12)C(C)(C)C', 15.7);
